Cited source for all entries: patent US20260193366A1

Target: T1, hIL-4Rα on cells (human, UniProt P24394 26-825)
T1 sequence: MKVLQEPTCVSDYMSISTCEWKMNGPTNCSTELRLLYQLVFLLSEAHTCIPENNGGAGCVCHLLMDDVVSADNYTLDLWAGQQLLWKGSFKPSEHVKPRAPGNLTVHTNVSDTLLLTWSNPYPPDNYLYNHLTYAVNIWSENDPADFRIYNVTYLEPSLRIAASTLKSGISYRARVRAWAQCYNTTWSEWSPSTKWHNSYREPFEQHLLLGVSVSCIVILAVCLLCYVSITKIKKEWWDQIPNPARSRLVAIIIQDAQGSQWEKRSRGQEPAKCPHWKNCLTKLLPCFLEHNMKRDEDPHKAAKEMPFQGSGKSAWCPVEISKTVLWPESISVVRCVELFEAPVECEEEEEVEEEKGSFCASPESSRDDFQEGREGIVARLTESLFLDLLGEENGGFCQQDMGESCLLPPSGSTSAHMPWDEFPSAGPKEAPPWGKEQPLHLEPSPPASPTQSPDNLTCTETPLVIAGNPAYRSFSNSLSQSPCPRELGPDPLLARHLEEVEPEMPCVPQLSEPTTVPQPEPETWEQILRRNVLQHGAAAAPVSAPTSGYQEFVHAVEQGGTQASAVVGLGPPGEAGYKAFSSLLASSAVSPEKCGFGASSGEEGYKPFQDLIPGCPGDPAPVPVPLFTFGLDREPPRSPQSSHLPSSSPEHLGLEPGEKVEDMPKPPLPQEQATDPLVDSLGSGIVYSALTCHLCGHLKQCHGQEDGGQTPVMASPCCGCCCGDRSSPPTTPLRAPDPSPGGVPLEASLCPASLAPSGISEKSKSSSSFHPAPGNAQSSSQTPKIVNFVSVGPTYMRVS
Experiment: FACS on HEK293 cells, competitor biotin-hIL-4;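 also: HEK293 cells stably co-expressing hIL-13Rα and hIL-4Rα, stained for 1 h at 4 °C, read-out as mean fluorescence intensity by flow cytometry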
Relative Blockade of IL-4 Binding IC50 reference

binder | Relative Blockade of IL-4 Binding IC50
Construct 16 (mAb424) (antibody, IgG4, V domains shown, VH/VL only) VH: EVQLVESGGGLEQPGGSLRLSCAGSGFTFRTYAMTWVRQAPGKGLEWVSSISGSGDNIYYADSVKGRFTISRDNSKNTLYLQMNSLRAEDTAVYYCAKDRLSVTIRPRYYGLDVWGQGTTVTVSS VL: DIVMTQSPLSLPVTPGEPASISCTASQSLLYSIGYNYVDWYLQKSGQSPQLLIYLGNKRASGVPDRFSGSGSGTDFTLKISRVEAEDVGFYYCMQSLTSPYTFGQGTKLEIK | 0.895 relative to dupilumab
Construct 21 (mAb429) (antibody, IgG4, V domains shown, VH/VL only) VH: EVQLVESGGGLEQPGGSLRLSCAGSGFTFRTYAMTWVRQAPGKGLEWVSSISGSGGNIYYADSVKGRFTISRDNSKNTLYLQMNSLRAEDTAVYYCAKDRVSIYVRPRYYGLDVWGQGTTVTVSS VL: DIVMTQSPLSLPVTPGEPASISCTASQSLLYSIGYNYVDWYLQKSGQSPQLLIYLGSKRASGVPDRFSGSGSGTDFTLKISRVEAEDVGFYYCMQSLTSPYTFGQGTKLEIK | 0.749 relative to dupilumab
Construct 30 (mAb439) (antibody, IgG4, V domains shown, VH/VL only) VH: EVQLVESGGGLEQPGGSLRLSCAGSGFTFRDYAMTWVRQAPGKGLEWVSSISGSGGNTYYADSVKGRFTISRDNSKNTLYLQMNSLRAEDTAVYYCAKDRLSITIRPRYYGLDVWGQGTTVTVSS VL: DIVMTQSPLSLPVTPGEPASISCRSSQSLLYSNRNNYLDWYLQKSGQSPQLLIYSASIRASGVPDRFSGSGSGTDFTLKISRVEAEDVGFYYCMQAFQAPYTFGQGTKLEIK | 0.863 relative to dupilumab
Construct 37 (mAb470) (antibody, IgG4, V domains shown, VH/VL only) VH: EVQLVESGGGLEQPGGSLRLSCAGSGFTFRTYAMTWVRQAPGKGLEWVSSISGGGGNTYYADSVKGRFTISRDNSKNTLYLQMNSLRAEDTAVYYCAKDRLSVTVRPRYYGLDVWGQGTTVTVSS VL: DIVMTQSPLSLPVTPGEPASISCRASQSLLYSVGYNYVDWYLQKSGQSPQLLIYLGNNRASGVPDRFSGSGSGTDFTLKISRVEAEDVGFYYCMQSLTSPYTFGQGTKLEIK | 1.08 relative to dupilumab
Construct 35 (mAb467) (antibody, IgG4, V domains shown, VH/VL only) VH: EVQLVESGGGLEQPGGSLRLSCAGSGFTFRTYAMTWVRQAPGKGLEWVSSISGSGGNTYYADSVKGRFTISRDNSKNTLYLQMNSLRAEDTAVYYCAKDRVSITIRPRYYGLDVWGQGTTVTVSS VL: DIVMTQSPLSLPVTPGEPASISCTSSQSLLYSIGKNYVDWYLQKSGQSPQLLIYEGNNRATGVPDRFSGSGSGTDFTLKISRVEAEDVGFYYCMQSLTSPYTFGQGTKLEIK | 1.29 relative to dupilumab
Construct 41 (mAb478) (antibody, IgG4, V domains shown, VH/VL only) VH: EVQLVESGGGLEQPGGSLRLSCAGSGFTFRDFAMTWVRQAPGKGLEWVSSISGGGGNTYYADSVKGRFTISRDNSKNTLYLQMNSLRAEDTAVYYCAKDRVSITIRPRYYGLDVWGQGTTVTVSS VL: DIVMTQSPLSLPVTPGEPASISCTASQSLLYSIGYNYVDWYLQKSGQSPQLLIYLGNKRASGVPDRFSGSGSGTDFTLKISRVEAEDVGFYYCMQAYNSPYTFGQGTKLEIK | 1.09 relative to dupilumab
Construct 24 (mAb432) (antibody, IgG4, V domains shown, VH/VL only) VH: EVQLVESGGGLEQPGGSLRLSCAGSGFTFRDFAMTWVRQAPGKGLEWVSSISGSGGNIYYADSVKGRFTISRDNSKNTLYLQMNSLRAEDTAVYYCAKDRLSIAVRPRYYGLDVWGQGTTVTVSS VL: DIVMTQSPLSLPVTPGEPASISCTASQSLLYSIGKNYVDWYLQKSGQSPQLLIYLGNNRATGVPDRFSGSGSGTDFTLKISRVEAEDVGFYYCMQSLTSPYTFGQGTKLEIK | 0.973 relative to dupilumab
Construct 13 (mAb422) (antibody, IgG4, V domains shown, VH/VL only) VH: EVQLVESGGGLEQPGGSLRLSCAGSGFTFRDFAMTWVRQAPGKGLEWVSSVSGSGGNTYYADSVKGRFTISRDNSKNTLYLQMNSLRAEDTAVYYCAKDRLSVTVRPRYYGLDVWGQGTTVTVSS VL: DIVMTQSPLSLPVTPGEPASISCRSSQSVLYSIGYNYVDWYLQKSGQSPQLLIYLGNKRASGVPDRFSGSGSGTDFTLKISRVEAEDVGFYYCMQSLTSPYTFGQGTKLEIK | 1.02 relative to dupilumab
Construct 20 (mAb428) (antibody, IgG4, V domains shown, VH/VL only) VH: EVQLVESGGGLEQPGGSLRLSCAGSGFTFRDFAMTWVRQAPGKGLEWVSSISGSGDNTYYADSVKGRFTISRDNSKNTLYLQMNSLRAEDTAVYYCAKDRLSITVRPRYYGLDVWGQGTTVTVSS VL: DIVMTQSPLSLPVTPGEPASISCTSSQSLLYSIGYNYVDWYLQKSGQSPQLLIYLGNKRASGVPDRFSGSGSGTDFTLKISRVEAEDVGFYYCMQSLQTPYVFGQGTKLEIK | 1.44 relative to dupilumab
Construct 1 (mAb410) (antibody, IgG4, V domains shown, VH/VL only) VH: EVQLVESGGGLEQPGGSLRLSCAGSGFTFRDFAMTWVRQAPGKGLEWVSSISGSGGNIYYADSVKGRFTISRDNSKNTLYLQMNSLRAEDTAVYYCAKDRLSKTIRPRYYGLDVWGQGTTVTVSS VL: DIVMTQSPLSLPVTPGEPASISCRSSQSVLYSIGYNYVDWYLQKSGQSPQLLIYLGSKRASGVPDRFSGSGSGTDFTLKISRVEAEDVGFYYCMQSLDTPYTFGQGTKLEIK | 1.1 relative to dupilumab
